Value source: patent US12258328B2

molecular target: EGFR wildtype (Homo sapiens); experiment: Biochemical EGFR kinase assay (Lance Ultra TR-FRET), wildtype; settings: Km ATP; read-out: IC50 WT (nM) Km ATP
Sequence (P00533 25-1210): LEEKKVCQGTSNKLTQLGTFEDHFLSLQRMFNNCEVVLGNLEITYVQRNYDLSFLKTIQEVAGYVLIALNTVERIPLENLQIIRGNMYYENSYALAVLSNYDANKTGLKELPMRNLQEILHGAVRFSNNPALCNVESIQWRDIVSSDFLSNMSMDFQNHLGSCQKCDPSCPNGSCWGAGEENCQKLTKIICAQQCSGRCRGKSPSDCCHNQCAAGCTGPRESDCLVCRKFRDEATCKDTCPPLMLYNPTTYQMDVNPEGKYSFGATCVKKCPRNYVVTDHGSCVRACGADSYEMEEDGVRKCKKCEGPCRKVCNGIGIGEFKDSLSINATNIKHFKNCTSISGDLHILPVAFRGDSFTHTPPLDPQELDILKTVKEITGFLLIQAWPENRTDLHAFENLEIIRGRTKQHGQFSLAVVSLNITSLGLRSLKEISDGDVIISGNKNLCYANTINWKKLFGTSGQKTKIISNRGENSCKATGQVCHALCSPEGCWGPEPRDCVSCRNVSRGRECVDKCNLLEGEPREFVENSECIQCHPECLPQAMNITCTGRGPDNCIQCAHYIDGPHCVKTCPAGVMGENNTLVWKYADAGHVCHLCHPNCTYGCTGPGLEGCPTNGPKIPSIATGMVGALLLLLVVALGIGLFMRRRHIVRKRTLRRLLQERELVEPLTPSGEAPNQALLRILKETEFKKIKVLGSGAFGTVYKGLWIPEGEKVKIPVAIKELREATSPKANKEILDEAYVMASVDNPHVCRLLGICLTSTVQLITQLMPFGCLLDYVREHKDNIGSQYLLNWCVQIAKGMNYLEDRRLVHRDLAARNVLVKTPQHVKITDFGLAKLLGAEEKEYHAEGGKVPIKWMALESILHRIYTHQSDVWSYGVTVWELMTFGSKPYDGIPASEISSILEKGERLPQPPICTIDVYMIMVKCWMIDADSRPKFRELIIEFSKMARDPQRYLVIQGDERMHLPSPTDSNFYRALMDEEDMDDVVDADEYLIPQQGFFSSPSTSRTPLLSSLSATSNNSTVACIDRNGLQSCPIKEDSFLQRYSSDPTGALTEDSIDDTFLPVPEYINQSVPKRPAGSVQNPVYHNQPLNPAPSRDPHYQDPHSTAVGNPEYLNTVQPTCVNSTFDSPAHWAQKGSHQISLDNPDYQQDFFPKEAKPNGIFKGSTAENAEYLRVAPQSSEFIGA
Category | rule: reported IC50 within range, see low bin: < 6 nM; mid bin: ≥ 6 nM and < 10 nM; high bin: ≥ 10 nM

- molecule: "COc1ccc(-c2cnc(Nc3ccnc(-c4cnn(S(=O)(=O)C5CC5)c4)n3)cc2N[C@H]2CC[C@@](C)(O)CC2)nn1 [Example 53]"
  category_label: "mid bin"
- molecule: "CC(C)(O)[C@H]1CC[C@@H](Nc2cc(Nc3ccnc(-c4cnn(S(=O)(=O)C5CC5)c4)n3)ncc2-c2ccc(CO)cn2)CC1 [Example 24]"
  category_label: "low bin"
- molecule: "CN1CCC(Oc2cnc(-c3cnc(Nc4ccnc(-c5cnn(S(=O)(=O)C6CC6)c5)n4)cc3N[C@H]3CC[C@@H](C(C)(C)O)CC3)cn2)CC1 [Example 147]"
  category_label: "low bin"
- molecule: "Cc1cnc(-c2cnc(Nc3ccnc(-c4cnn(S(=O)(=O)C5CC5)c4)n3)cc2N[C@H]2CC[C@@](C)(O)CC2)cn1 [Example 59]"
  category_label: "high bin"
- molecule: "C[C@]1(O)CC[C@@H](Nc2cc(Nc3ccnc(-c4cnn(S(=O)(=O)C5CC5)c4)n3)ncc2-c2ccc(N3CC(F)(F)C3)nn2)CC1 [Example 66]"
  category_label: "high bin"
- molecule: "CC(C)(O)c1cc(-c2cnc(Nc3ccnc(-c4cnn(S(=O)(=O)C5CC5)c4)n3)cc2N[C@H]2CC[C@@](C)(O)CC2)ncc1F [Example 104]"
  category_label: "high bin"
- molecule: "CC(C)(O)[C@H]1CC[C@@H](Nc2cc(Nc3ccnc(-c4cnn(S(=O)(=O)C5CC5)c4)n3)ncc2-c2cc(C(F)F)ccn2)CC1 [Example 78]"
  category_label: "high bin"
- molecule: "CC(C)(O)c1ccnc(-c2cnc(Nc3ccnc(-c4cnn(S(=O)(=O)C5CC5)c4)n3)cc2N[C@H]2CC[C@@H](CO)CC2)c1 [Example 111]"
  category_label: "low bin"

query: Bin? CN1CCN(c2ccnc(-c3cnc(Nc4ccnc(-c5cnn(S(=O)(=O)C6CC6)c5)n4)cc3N[C@H]3CC[C@@](C)(O)CC3)c2)CC1 [Example 58]
result: high bin

query: Bin? CN1CCC(Oc2ccc(-c3cnc(Nc4ccnc(-c5cnn(CC(F)F)c5)n4)cc3NC3CC(F)(F)C3)nc2)CC1 [Example 139]
result: high bin

====

Molecular target: UniProtKB P00533
Assay: Biochemical EGFR kinase assay (Lance Ultra TR-FRET), wildtype
Settings: IC50 WT, 100 μM ATP
Procedure: Biochemical EGFR kinase assays were conducted using Lance Ultra time-resolved fluorescence resonance energy transfer (TR-FRET) technology from Perkin-Elmer. […] Each kinase reactions were incubated at room temperature for 1 hour and then stopped by the addition of 4 μL of stop solution (10 mM EDTA). […] After 60 minutes incubation at room temperature the LANCE signal was measured on an EnVision Multilabel Reader (Perkin-Elmer). […]
metric_name: IC50 (nM)
Answer in nM, number only, no unit symbol.

Answered cases to consult:
- molecule: "CC(C)(O)[C@H]1CC[C@@H](Nc2cc(Nc3ccnc(-c4cnn(S(=O)(=O)C5CC5)c4)n3)ncc2-c2cc(NC3CC(F)(F)C3)ccn2)CC1 [Example 215]"
  IC50 (nM): 6110
- molecule: "CC(C)(O)[C@H]1CC[C@@H](Nc2cc(Nc3ccnc(-c4cnn(S(=O)(=O)C5CC5)c4)n3)ncc2-c2ccc(OCCN3CCC3)cn2)CC1 [Example 217]"
  IC50 (nM): 118
- molecule: "CC(C)(O)c1ccc(-c2cnc(Nc3ccnc(-c4cnn(S(=O)(=O)C5CC5)c4)n3)cc2N[C@H]2CC[C@@H](C(C)(C)O)CC2)nc1 [Example 169]"
  IC50 (nM): 416

query: Check the records and state IC50 for O=S(=O)(C1CC1)n1cc(-c2nccc(Nc3cc(N[C@H]4CC[C@@H](CO)CC4)c(-c4cc(NC5CC(F)(F)C5)ccn4)cn3)n2)cn1 [Example 214]
result: 711

query: Check the records and state IC50 for CN1CCN(S(=O)(=O)c2ccc(-c3cnc(Nc4ccnc(-c5cnn(S(=O)(=O)C6CC6)c5)n4)cc3N[C@H]3CC[C@@H](CO)CC3)nc2)CC1 [Example 189]
result: 1770

query: Check the records and state IC50 for O=S(=O)(C1CC1)n1cc(-c2nccc(Nc3cc(N[C@H]4CC[C@@H](CO)CC4)c(-c4cccc(F)n4)cn3)n2)cn1 [Example 272]
result: 495

query: Check the records and state IC50 for O=C(c1ccc(-c2cnc(Nc3ccnc(-c4cnn(S(=O)(=O)C5CC5)c4)n3)cc2N[C@H]2CC[C@@H](CO)CC2)nc1)N1CCOCC1 [Example 200]
result: 134

query: Check the records and state IC50 for CN1CC(Oc2ccc(-c3cnc(Nc4ccnc(-c5cnn(S(=O)(=O)C6CC6)c5)n4)cc3N[C@H]3CC[C@@](C)(O)CC3)nc2)C1 [Example 289]
result: 206

query: Check the records and state IC50 for C[C@]1(O)CC[C@@H](Nc2cc(Nc3ccnc(-c4cnn(S(=O)(=O)C5CC5)c4)n3)ncc2-c2ccc(OCCO)cn2)CC1 [Example 205]
result: 1440

query: Check the records and state IC50 for CC1(O)CCC(Nc2cc(Nc3ccnc(-c4cnn(S(=O)(=O)C5CC5)c4)n3)ncc2-c2ccc(C(O)C(F)(F)F)cn2)CC1 (stereo not drawn) [Example 226]
result: 5120

query: Check the records and state IC50 for C[C@]1(O)CC[C@@H](Nc2cc(Nc3ccnc(-c4cnn(S(=O)(=O)C5CC5)c4)n3)ncc2-c2cccc(NCCO)n2)CC1 [Example 285]
result: 6310

query: Check the records and state IC50 for CC(C)(O)[C@H]1CC[C@@H](Nc2cc(Nc3ccnc(-c4cnn(S(=O)(=O)C5CC5)c4)n3)ncc2-c2ccc(C(=O)N3CCOCC3)cn2)CC1 [Example 201]
result: 1040
